Origin of the recorded values: patent US6355799B1

Test system: field corn (Zea mays L., var. Dekalb 535, CORN)
Assay: Post-emerge test, crop safety
Format: in vivo
Details: post-emerge, 63 g ai/ha, crop damage rating 0-100 at 14 days after application
Measured quantity: Post-emerge Herbicidal Activity CORN
Reply briefly: the number, and no unit.

Look over these answered cases.
INSERT INTO assay_data (item_smiles, measured_quantity, observed_measurement) VALUES
  ('CC(C)Oc1c(Cl)cc(F)c(N2C(=O)C3=C(CCCC3)C2=O)c1NC(=O)c1ccc(F)cc1F', 'Post-emerge Herbicidal Activity CORN', 5),
  ('Cc1c(Cl)cc(F)c(-n2c(=O)cc(C(F)(F)F)n(C)c2=O)c1NC(=O)OCc1cccc([N+](=O)[O-])c1', 'Post-emerge Herbicidal Activity CORN', 55),
  ('Cc1ccc(COC(=O)Nc2c(C)c(Cl)cc(F)c2-n2c(=O)cc(C(F)(F)F)n(C)c2=O)cc1', 'Post-emerge Herbicidal Activity CORN', 25),
  ('COc1c(Cl)cc(F)c(-n2c(=O)n3n(c2=O)CCCC3)c1NC(=O)c1ccc(F)cc1F', 'Post-emerge Herbicidal Activity CORN', 5),
  ('COc1c(Cl)cc(F)c(N2C(=O)C3=C(CCCC3)C2=O)c1NC(=O)C=Cc1ccccc1', 'Post-emerge Herbicidal Activity CORN', 10);

Enquiry: Retrieve Post-emerge Herbicidal Activity CORN measured for COc1ccccc1COC(=O)Nc1c(C)c(Cl)cc(F)c1-n1c(=O)cc(C(F)(F)F)n(C)c1=O and print it.
Return: 30

Enquiry: Output Post-emerge Herbicidal Activity CORN of C#CCOc1c(Cl)cc(F)c(N2C(=O)C3=C(CCCC3)C2=O)c1NC(=O)c1ccc(F)cc1F
Return: 10

Enquiry: Give reported Post-emerge Herbicidal Activity CORN value for C#CCOc1c(Cl)cc(F)c(-n2nnn(CCCF)c2=O)c1N
Return: 0
